// data source = paper PMC4894453

# System: methicillin-resistant Staphylococcus aureus N315
# measurement_description: MIC, microbroth dilution, MRSA
# Format: cell-based
# condition_parameters: Staphylococcus aureus, MRSA, read-out: MIC against Gram-positive bacteria, MRSA
property_name: MIC (µg/mL)
The answer is to be given in µg/mL; state only the numeric part.

Look up and state reported MIC for CCCCCCC/C=C/C(=O)N1C(=O)/C(=C(\O)c2ccc(OCOCCOC)cc2)C(=O)C1CC(C)C (stereo not shown)
0.2

Return reported MIC. Input molecule: CCCCCCC/C=C/C(=O)N1C(=O)/C(=C(/C)O)C(=O)C1CCCCN (stereo not shown)
200

----------
# Test system: panel of clinical relevant Gram-positive pathogens
property_name: MIC

// output MIC; input CCCCCCC/C=C/C(=O)N1C(=O)/C(=C(\O)c2ccccc2)C(=O)C1CC(C)C (stereo not shown) [Compound 7] ; system panel of clinical relevant Gram-positive pathogens
< 1 µg/mL

Quote panel of clinical relevant Gram-positive pathogens MIC for entry CCCCCCC/C=C/C(=O)N1C(=O)/C(=C(\O)CCCC)C(=O)C1CC(C)C (stereo not shown) [Compound 6] .
< 1 µg/mL

Report the value of MIC obtained on panel of clinical relevant Gram-positive pathogens for CCCCCCC/C=C/C(=O)N1C(=O)/C(=C(\O)c2ccc(F)cc2)C(=O)C1CC(C)C (stereo not shown) [Compound 13] .
< 1 µg/mL

For panel of clinical relevant Gram-positive pathogens, give the measured MIC of the entry CC(=O)C1=C(O)C(CC(C)C)NC1=O (stereo not shown) [Compound 2]
> 200 µg/mL
